system: SK-N-MC cell line (human brain neuroepithelioma, high S phase); assay: Cancer cell uptake, SK-N-MC; conditions: (ii) SK-N-MC; note: unit not given here
Threshold-based label: Cell Uptake under 0.06 gives 1.0, Cell Uptake not under 0.06 gives 0.0.

Incoming: I'd appreciate it if you could check whether Cc1cn([C@@H]2O[C@H](CO)C(O)C2F)c(=O)[nH]c1=O (stereo partly drawn) [FMAU, reference compound] has Cell Uptake smaller than 0.06.
Outgoing: 1.0

Incoming: For Cc1cn([C@H]2CC(O)[C@@H](CO)O2)c(=O)n(Cc2cn(Cc3cc(F)ccn3)nn2)c1=O (stereo partly drawn) , is the recorded Cell Uptake below the cut-off of 0.06?
Outgoing: 1.0

Incoming: Lab note: Cell Uptake threshold 0.06. Does this compound come in strictly under it? Cc1cn([C@@H]2O[C@H](CO)C(O)C2F)c(=O)n(CCF)c1=O (stereo partly drawn)
Outgoing: 1.0

Incoming: Report whether reported Cell Uptake is lower than 0.06 (strictly) for Cc1cn([C@H]2CC(O)[C@@H](CO)O2)c(=O)n(CC(O)CF)c1=O (stereo partly drawn)
Outgoing: 1.0

Incoming: Is 0.06 strictly greater than the compound's reported Cell Uptake? compound: Cc1cn([C@H]2CC(O)[C@@H](CO)O2)c(=O)n(CCn2cc(CF)nn2)c1=O (stereo partly drawn)
Outgoing: 0.0

Next:
Incoming: Record Cc1cn([C@H]2CC(O)[C@@H](CO)O2)c(=O)n(CCF)c1=O (stereo partly drawn) [Ta-4, 3-N-(2′-[^18F]fluoroethyl)-thymidine] : is its Cell Uptake strictly below 0.06?
Outgoing: 0.0

Incoming: Input Cc1cn([C@H]2CC(F)[C@@H](CO)O2)c(=O)n(Cc2cn(CCF)nn2)c1=O (stereo partly drawn) ; condition: Cell Uptake strictly below 0.06. Does it hold?
Outgoing: 0.0

Incoming: Say whether its Cell Uptake is strictly beneath 0.06. Entry: Cc1cn([C@@H]2O[C@H](CO)C(O)C2O)c(=O)n(CCF)c1=O (stereo partly drawn) [Ta-11]
Outgoing: 1.0
